# Test system: RAW-Dual
# testSummary: NF-kB SEAP reporter activity, fold change vs agonist alone; cytotoxicity flag (confluency mask): not cytotoxic; higher = enhanced NF-kB activity
# recordedConditions: agonist: LPS (TLR4) 0.1 ug/mL
The full ranking holds about 2,900 compounds; the median of “NF-kB SEAP reporter activity, fold change vs agonist alone” is about 0.99, and the highest 2% start at about 2.6. The entries come from a sample that favours the highest values as a whole.
valueKind: NF-kB SEAP reporter activity
Note: the reply should be a number with no unit written.

As a guide, the following entries are already answered.
CCOC(=O)C(CCc1ccccc1)NC(C)C(=O)N1C(C(=O)O)CC2CCCCC21 (stereo unspecified) (library stock concentration (final ~1000-fold dilution): 10 mM): 1.25
CCn1c2ccccc2c2cc(-n3nncc3-c3ccccc3)ccc21 (library stock concentration (final ~1000-fold dilution): 10 mM): 3.15
COc1cc(-c2cc(-c3ccc(Cl)cc3)nc(=O)[nH]2)ccc1O (library stock concentration (final ~1000-fold dilution): 10 mM): 1.6
Cc1[nH]c(C=C2C(=O)Nc3ccc(F)cc32)c(C)c1C(=O)NCCN1CCCC1 (library stock concentration (final ~1000-fold dilution): 2 mM): 1.04
COc1ccc(NC(=O)c2ccc(C(=N)N(C)C)cc2)c(C(=O)Nc2ccc(Cl)cn2)c1.O=C(O)/C=C\C(=O)O (library stock concentration (final ~1000-fold dilution): 10 mM): 0.955

[Q] Quick one: NF-kB SEAP reporter activity for Cl.N=C(N)NCCCCC(N)C(=O)O (stereo unspecified) (library stock concentration (final ~1000-fold dilution): 10 mM water) ?
[A] 1.17
